# System: A549 NSCLC
# experimental-details: NCI tumour cell line growth inhibition, 48 h
quantity-measured: TGI

>>> endpoint_result("CCCCCCCCCC(CCCC(O)CC(=O)O)OC1OC(COC2OC(C)C(O)C(O)C2O)C(O)C(O)C1OC1OC(CO)C(O)C(O)C1OC1OC(C)C(O)C(O)C1O (centres undefined)")
"> 40 µM"
>>> endpoint_result("CCn1cnc2c(NC(C)=O)ncnc21")
"> 100 µM"
>>> endpoint_result("COC1(C)C=NCC(C)(C)NC(=O)C(C)(OC)C=NCC(C)(C)NC1=O (centres undefined)")
"> 10 µM"
>>> endpoint_result("COc1c(O)cc(C(=O)O[C@@H]2Cc3c(O)cc(O)cc3O[C@@H]2c2cc(O)c(O)c(O)c2)cc1O")
"51.2 µM"

====

# Tested on: RXF 393 renal
# experimental-details: NCI tumour cell line growth inhibition, 48 h
quantity-measured: TGI

>>> endpoint_result("CN1CCCCC1CCN1c2ccccc2Sc2ccc(S(C)=O)cc21 (stereo not drawn)")
"> 100 µM"
>>> endpoint_result("CN(C)CCC1(C2=CCCC2)CC/C(=C\\c2ccccc2)C1=O (stereo not drawn)")
"26.6 µM"
>>> endpoint_result("O=C1OC(c2ccccc2)N/C1=C\\c1ccc2c(c1)OCO2 (stereo not drawn)")
"> 100 µM"
>>> endpoint_result("CCCCCC(/C=N/N)C(O)(C(F)(F)F)C(F)(F)F (stereo not drawn)")
"> 10 µM"
>>> endpoint_result("CC(Oc1ccc2cc(C(=O)c3ccccc3)c(=O)oc2c1)C(=O)O (stereo not drawn)")
"> 100 µM"
>>> endpoint_result("O=C(/C(=C/c1cccs1)c1ccccc1)c1ccccc1")
"18.8 µM"
>>> endpoint_result("CCOC1SC(SC)=NN1C(=O)C(OC(C)=O)C(OC(C)=O)C(OC(C)=O)C(OC(C)=O)C(=O)N1N=C(SC)SC1OCC (stereo not drawn)")
"> 100 µM"
>>> endpoint_result("Nc1nc2c(c3cnccc13)C(c1cccc(Cl)c1)Cc1cnccc1-2 (stereo not drawn)")
"0.765 µM"

====

TGI overview
# Tested on: HT29 colon
# experimental-details: NCI tumour cell line growth inhibition, 48 h
quantity-measured: TGI

>>> endpoint_result("O=C1OC(c2ccccc2)N/C1=C\\c1ccc2c(c1)OCO2 (stereo unspecified)")
"> 100 µM"
>>> endpoint_result("CC[C@]12C=CCN3CCC4(c5cc([C@@]6(C(=O)OC)CC7CN(CCc8c6[nH]c6ccccc86)C[C@@H]6CCC[C@H]76)c(OC)cc5N(C)C4[C@](O)(C(=O)OC)C1OC(C)=O)C32 (stereo partly specified)")
"> 3.12 µM"
>>> endpoint_result("CC1(C)OC(=O)C(=C2CC(c3ccccc3)c3ccccc32)C(=O)O1 (stereo unspecified)")
"> 100 µM"
>>> endpoint_result("CC(C)[C@@H]1CC[C@@H]2[C@@H]1[C@H](OC(=O)/C=C/c1ccccc1)[C@]1(C(C)C)C[C@@H](OC(=O)CO)[C@@]2(C)O1")
"14.4 µM"
>>> endpoint_result("Nc1ccc(N)c2c1C(=O)c1c(N)ccc(N)c1C2=O")
"> 100 µM"
>>> endpoint_result("CC1CCC23COC(=O)C2C(O)CCC3C1(C)CC(O)c1ccoc1 (stereo unspecified)")
"> 100 µM"
>>> endpoint_result("Cc1ccc(C(=O)NC(C)(C)C)cc1N=NN(C)C")
"> 100 µM"
>>> endpoint_result("CCN(CC)c1nc(N(C)C)c2cc(OC)ccc2n1")
"> 100 µM"
>>> endpoint_result("Nc1nc2c(c3cnccc13)C(c1cccc(Cl)c1)Cc1cnccc1-2 (stereo unspecified)")
"2.56 µM"
>>> endpoint_result("c1ccc(C2N3CCCCC3[C@@H]3c4[nH]c5ccccc5c4CCN23)cc1 (stereo partly specified)")
"33.5 µM"
>>> endpoint_result("Cc1cc(NCCCCCCNc2cc(C)nc3ccc(Cl)cc23)c2cc(Cl)ccc2n1")
"33.5 µM"
>>> endpoint_result("BrC12c3ccccc3Sc3ccccc3C1(Br)c1ccccc12 (stereo unspecified)")
"> 100 µM"
>>> endpoint_result("O=C(Nc1c(Cl)cc([N+](=O)[O-])cc1Cl)/C(=N\\Nc1cccc(Cl)c1)c1c(O)c2ccccc2oc1=O")
"> 100 µM"
>>> endpoint_result("CC(=O)O[C@H]1[C@@H](N2CCN(C)CC2)C[C@H]2[C@@H]3CC=C4C[C@@H](N5CCCC5)CC[C@]4(C)[C@H]3CC[C@@]21C")
"> 100 µM"
>>> endpoint_result("Cn1c(=O)c2nc(N3CCCCC3)cnc2n(C)c1=O")
"> 100 µM"
>>> endpoint_result("COc1cc(C=O)c(-c2cc3c(cc2C=O)OCO3)c(OC)c1OC")
"186 µM"
>>> endpoint_result("O=C(CN1CCN(c2ccc(Cl)cc2)CC1)N1CCN(c2nnc(-c3ccccc3)c(-c3ccccc3)n2)CC1")
"19.5 µM"
>>> endpoint_result("Cc1ccc(S(=O)(=O)n2cc(-c3nnnn3-c3ccc(Cl)cc3)c(=O)c3ccccc32)cc1")
"> 100 µM"
>>> endpoint_result("CNC1C(OC2C(OC3C(O)C(O)C(O)C(O)C3O)OC(C)C2(O)CO)OC(CO)C(O)C1O (stereo unspecified) (tested in a mixture with another compound)")
"> 100 µM"
>>> endpoint_result("CSc1nc2c(c(=O)[nH]1)C(c1ccc(Cl)cc1)C1=C(N2)/C(=C/c2ccc(Cl)cc2)CNC1 (stereo unspecified)")
"5.09 µM"
>>> endpoint_result("ClC[Si]12OCCN(CCO1)CCO2")
"> 100 µM"
>>> endpoint_result("CCOC1SC(SC)=NN1C(=O)C(OC(C)=O)C(OC(C)=O)C(OC(C)=O)C(OC(C)=O)C(=O)N1N=C(SC)SC1OCC (stereo unspecified)")
"> 100 µM"
>>> endpoint_result("C/C(=N\\Nc1nc2ccccc2o1)c1ccncn1")
"> 35.6 µM"
>>> endpoint_result("CCNCCCCNCC")
"> 3750 µM"
>>> endpoint_result("O=C(CSc1nnc(-c2ccc(N=Cc3ccc(Cl)cc3)cc2)o1)Nc1cccc(Cl)c1")
"> 100 µM"
>>> endpoint_result("NC(CCCCNC(=O)C(Cc1ccccc1)NC(=O)OCc1ccccc1)C(=O)NC(CCCCNC(=O)C(Cc1ccccc1)NC(=O)OCc1ccccc1)C(=O)NC(CCCCNC(=O)C(Cc1ccccc1)NC(=O)OCc1ccccc1)C(=O)NC(CCCCNC(=O)C(Cc1ccccc1)NC(=O)OCc1ccccc1)C(=O)NC(CCCCNC(=O)C(Cc1ccccc1)NC(=O)OCc1ccccc1)C(=O)NC(CCCCNC(=O)C(Cc1ccccc1)NC(=O)OCc1ccccc1)C(=O)O (stereo unspecified)")
"> 100 µM"
